These data points were gathered from ChEMBL document CHEMBL3351244.

Assay: Antiproliferative activity against human HCT116 cells assessed as inhibition of cell proliferation after 72 hrs
Type: functional, cell-based
Conditions: HCT-116, 72 h
pEC50: −log10 of the molar value.
Readings of pEC50 for the listed molecules

[
  {
    "molecule": "O=C(NOCCO)c1ccn2cncc2c1Nc1ccc(I)cc1F",
    "pEC50": 7.46
  },
  {
    "molecule": "O=C(NOCCO)c1oc2ccncc2c1Nc1ccc(I)cc1F",
    "pEC50": 6.92
  },
  {
    "molecule": "C[C@H](CO)CONC(=O)c1ncc2cncn2c1Nc1ccc(I)cc1F",
    "pEC50": 6.97
  },
  {
    "molecule": "O=C(NOCCO)c1ccc2cnsc2c1Nc1ccc(I)cc1F",
    "pEC50": 7.36
  },
  {
    "molecule": "O=C(NOCCO)c1ccc2cncn2c1Nc1ccc(I)cc1F [GDC-0623]",
    "pEC50": 7.29
  },
  {
    "molecule": "O=C(NOCCO)c1cc(F)c2cncn2c1Nc1ccc(I)cc1F",
    "pEC50": 6.85
  },
  {
    "molecule": "O=C(NOCCO)c1ncc2cncn2c1Nc1ccc(I)cc1F",
    "pEC50": 6.92
  },
  {
    "molecule": "C[C@H](O)CONC(=O)c1ncc2cncn2c1Nc1ccc(I)cc1F",
    "pEC50": 7.28
  }
]
